# System: A549
# ASSAY: cells
# PARTICULARS: Homo sapiens, A549, 48 h
# Description: Antiproliferative activity against human A549 cells incubated for 48 hrs by CCK8 assay
READOUT LABEL: IC50 (nM)

a: COc1ccc(N(C)c2nc(Cl)nc3c2ccn3C)cc1
b: COc1ccc(N(C)c2nc(Cl)nc3cc[nH]c23)cc1
c: COc1ccc(N(C)c2nc(N)nc3ccsc23)cc1
Re-order the entries listed above so their IC50 values fall from first to last. List the labels, following the order given in the request.
c, a, b
(c: 207 nM, a: 120 nM, b: 20.4 nM)

a: COc1ccc(N(C)c2ncnc3ccsc23)cc1
b: CN(c1ccc2c(c1)OCO2)c1nc(Cl)nc2ccsc12
c: COc1ccc(N(C)c2nc(Cl)nc3ccsc23)cc1F
Sort the molecules on IC50; start with the lowest figure. List the labels, following the order given in the request.
c, a, b
(c: 2.57 nM, a: 88.1 nM, b: 634 nM)

1: CN(c1ccc2c(ccn2C)c1)c1nc(Cl)nc2ccsc12
2: CC(=O)O[C@H]1C(=O)[C@@]2(C)[C@H]([C@H](OC(=O)c3ccccc3)[C@]3(O)C[C@H](OC(=O)[C@H](O)[C@@H](NC(=O)c4ccccc4)c4ccccc4)C(C)=C1C3(C)C)[C@]1(OC(C)=O)CO[C@@H]1C[C@@H]2O
Sort 1 and 2 by IC50 descending and give the first. Mark your answer with the label of the selected entry.
2
